Reference source for all entries: ChEMBL document CHEMBL3352619

# PROCEDURE_TEXT: Cytotoxicity against human MKN45 cells after 72 hrs by MTT assay
# EXPERIMENTAL_CONTEXT: MKN-45, 72 h
READOUT_KIND: pIC50
Scale note: pIC50 = -log10(concentration in M).

[ask] Any idea what pIC50 was measured for COc1cc2c(Oc3ccc(NC(=O)c4nn(-c5ccccc5F)c(=O)c5ccccc45)cc3F)ccnc2cc1OCCCN1CCOCC1 ?
[reply] 6.82

[ask] Please do the same for COc1cc2c(Oc3ccc(NC(=O)c4nn(-c5ccccc5Br)c(=O)c5ccccc45)cc3F)ccnc2cc1OCCCN1CCOCC1 as well.
[reply] 6.35

[ask] Please do the same for COc1cc2c(Oc3ccc(NC(=O)c4nn(-c5ccc([N+](=O)[O-])cc5)c(=O)c5ccccc45)cc3F)ccnc2cc1OCCCN1CCC(C)CC1 as well.
[reply] 5.94

[ask] Please do the same for COc1cc2c(Oc3ccc(NC(=O)c4nn(-c5ccc(Br)cc5)c(=O)c5ccccc45)cc3F)ccnc2cc1OCCCN1CCCCC1 as well.
[reply] 6.30

[ask] Please do the same for COc1cc2c(Oc3ccc(NC(=O)c4nn(-c5ccccc5Br)c(=O)c5ccccc45)cc3F)ccnc2cc1OCCCN1CCC(C)CC1 as well.
[reply] 6.29

[ask] Please do the same for COc1cc2c(Oc3ccc(NC(=O)c4nn(-c5cccc(F)c5)c(=O)c5ccccc45)cc3F)ccnc2cc1OCCCN1CCC(C)CC1 as well.
[reply] 6.66

[ask] Please do the same for COc1cc2c(Oc3ccc(NC(=O)c4nn(-c5ccc([N+](=O)[O-])cc5)c(=O)c5ccccc45)cc3F)ccnc2cc1OCCCN1CCCCC1 as well.
[reply] 5.94

[ask] Please do the same for COc1cc2c(Oc3ccc(NC(=O)c4nn(-c5ccc(F)cc5)c(=O)c5ccccc45)cc3F)ccnc2cc1OCCCN1CCCCC1 as well.
[reply] 6.74

[ask] Please do the same for COc1cc2c(Oc3ccc(NC(=O)c4nn(-c5ccc(Br)cc5)c(=O)c5ccccc45)cc3F)ccnc2cc1OCCCN1CCN(C)CC1 as well.
[reply] 6.46

[ask] Please do the same for COc1ccc(-n2nc(C(=O)Nc3ccc(Oc4ccnc5cc(OCCCN6CCOCC6)c(OC)cc45)c(F)c3)c3ccccc3c2=O)cc1 as well.
[reply] 5.79

[ask] Please do the same for COc1cc2c(Oc3ccc(NC(=O)c4nn(-c5cccc(F)c5)c(=O)c5ccccc45)cc3F)ccnc2cc1OCCCN1CCCC1 as well.
[reply] 6.80

[ask] Please do the same for COc1ccc(-n2nc(C(=O)Nc3ccc(Oc4ccnc5cc(OCCCN6CCCCC6)c(OC)cc45)c(F)c3)c3ccccc3c2=O)cc1 as well.
[reply] 6.02

[ask] Please do the same for COc1cc2c(Oc3ccc(NC(=O)c4nn(-c5ccc(F)cc5)c(=O)c5ccccc45)cc3F)ccnc2cc1OCCCN1CCN(C)CC1 as well.
[reply] 6.82

[ask] Please do the same for COc1cc2c(Oc3ccc(NC(=O)c4nn(-c5ccc(F)cc5)c(=O)c5ccccc45)cc3F)ccnc2cc1OCCCN1CCC(C)CC1 as well.
[reply] 6.89

[ask] Please do the same for COc1cc2c(Oc3ccc(NC(=O)c4nn(-c5ccc([N+](=O)[O-])cc5)c(=O)c5ccccc45)cc3F)ccnc2cc1OCCCN1CCCC1 as well.
[reply] 5.79

[ask] Please do the same for COc1cc2c(Oc3ccc(NC(=O)c4nn(-c5ccc(Br)cc5)c(=O)c5ccccc45)cc3F)ccnc2cc1OCCCN1CCOCC1 as well.
[reply] 6.47

[ask] Please do the same for COc1cc2c(Oc3ccc(NC(=O)c4nn(-c5ccccc5Br)c(=O)c5ccccc45)cc3F)ccnc2cc1OCCCN1CCN(C)CC1 as well.
[reply] 6.40

[ask] Please do the same for COc1cc2c(Oc3ccc(NC(=O)c4nn(-c5ccc(Br)cc5)c(=O)c5ccccc45)cc3F)ccnc2cc1OCCCN1CCC(C)CC1 as well.
[reply] 6.48

[ask] Please do the same for COc1ccc(-n2nc(C(=O)Nc3ccc(Oc4ccnc5cc(OCCCN6CCN(C)CC6)c(OC)cc45)c(F)c3)c3ccccc3c2=O)cc1 as well.
[reply] 5.88
